Tested on: Escherichia coli TOP10
Experiment: shrunken log2 fold change of peptide-encoding DNA abundance (4.5 h post-induction vs induction); higher = less antimicrobial activity (less host growth inhibition)
Details: time post-induction: 4.5 h; library: site-saturation at positions 5, 18, 19, 20
Measurement kind: shrunken log2 fold change
Respond with the number and no other words.

I would be grateful if you could share the reported shrunken log2 fold change for `RRIRCRPPRLPRPRPRPIMIPRP` . -0.566

Then what about the sequence `RRIRTRPPRLPRPRPRPFLGPRP` ? -0.0873

###

Test system: Escherichia coli TOP10
Assay: shrunken log2 fold change of peptide-encoding DNA abundance (4.5 h post-induction vs induction); higher = less antimicrobial activity (less host growth inhibition)
Details: time post-induction: 4.5 h; library: site-saturation at positions 5, 18, 19, 20
Reported shrunken log2 fold change is given for each of the following sequences.
Enter the number alone.

Consider the sequence shown here: `RRIRFRPPRLPRPRPRPCLHPRP` What is its recorded shrunken log2 fold change? -0.542

###

System: Escherichia coli TOP10
Assay: shrunken log2 fold change of peptide-encoding DNA abundance (4.5 h post-induction vs induction); higher = less antimicrobial activity (less host growth inhibition)
Details: time post-induction: 4.5 h; library: site-saturation at positions 5, 18, 19, 20
Is shrunken log2 fold change at least -0.1? Then class 1. If not, class 0.

Macromolecule sequence: RRIRSRPPRLPRPRPRPSCGPRP
Assigned label: class 1
--
Macromolecule sequence: RRIRCRPPRLPRPRPRPVYQPRP
Assigned label: class 0
--
Macromolecule sequence: RRIRMRPPRLPRPRPRPTVHPRP
Assigned label: class 1
--
Macromolecule sequence: RRIRLRPPRLPRPRPRPHFYPRP
Assigned label: class 0
--
Macromolecule sequence: RRIRIRPPRLPRPRPRPVKSPRP
Assigned label: class 1

Determine whether this sequence has shrunken log2 fold change no lower than -0.1: `RRIRTRPPRLPRPRPRPKKFPRP` class 0

Next sequence up: `RRIRFRPPRLPRPRPRPQNCPRP` class 0

Follow-up entry: `RRIRKRPPRLPRPRPRPLMIPRP` class 0

Likewise for `RRIRNRPPRLPRPRPRPNGAPRP` ? class 1

Input `RRIRNRPPRLPRPRPRPYLNPRP` class 0

Same lookup for `RRIRHRPPRLPRPRPRPLNCPRP` , please. class 0

###

Listed here: items and their measured shrunken log2 fold change.
System: Escherichia coli TOP10;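 note: peptides expressed intracellularly from a pBAD plasmid library in pooled LB shake-flask culture, induced with 0.3% L-arabinose, DNA abundance read by NGS, three biological replicates, DESeq2 with apeglm shrinkage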
Experiment: shrunken log2 fold change of peptide-encoding DNA abundance (4.5 h post-induction vs induction); higher = less antimicrobial activity (less host growth inhibition)
Settings: time post-induction: 4.5 h; library: site-saturation at positions 5, 18, 19, 20
Answer with a number only.

Use the examples below as a reference point.
Macromolecule sequence: RRIRDRPPRLPRPRPRPRMGPRP
shrunken log2 fold change: 0.161
--
Macromolecule sequence: RRIRVRPPRLPRPRPRPSHTPRP
shrunken log2 fold change: -0.0229
--
Macromolecule sequence: RRIRLRPPRLPRPRPRPCVCPRP
shrunken log2 fold change: -0.00623
--
Macromolecule sequence: RRIRQRPPRLPRPRPRPVERPRP
shrunken log2 fold change: -0.0839
--
Macromolecule sequence: RRIRKRPPRLPRPRPRPRHGPRP
shrunken log2 fold change: -0.0248
--
Macromolecule sequence: RRIRKRPPRLPRPRPRPATQPRP
shrunken log2 fold change: 0.958
--
Macromolecule sequence: RRIRLRPPRLPRPRPRPRMRPRP
shrunken log2 fold change: 0.667

// map `RRIRGRPPRLPRPRPRPEHDPRP` to recorded shrunken log2 fold change (system: Escherichia coli TOP10) 0.835
